FYI, the data here is from PubChem BioAssay (NCATS).

Test: Cell Viability - LYMP2-009 (AID 968);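 further: cells exposed to compound for 24 h at 37 °C; 0% = DMSO alone and the full-kill end = tetraoctylammonium bromide at 92 µM; nearly all actives have a fitted effect of over 55% in size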
Conditions: LYMP2-009 lymphoblastoid cell viability; series mostly up to 92.2 µM
Inconclusive results are not listed. Activity calls are given as the source filed them. The call rests on the fitted dose curve; in most records, active means well fitted cell-killing curve with a large enough effect; inconclusive means small, poorly fitted or top-dose-only effect; inactive means flat fitted curve, though single readings scatter.
Quantity Measured: outcome

Answered examples (5):
[[record]]
compound = "CC(=O)Nc1ccccc1"
result = "inactive"

[[record]]
compound = "FC(F)(F)C(Cl)Br (stereo not drawn)"
result = "inactive"

[[record]]
compound = "CCN(CC)C(=O)c1cccc(C)c1"
result = "inactive"

[[record]]
compound = "CC(=O)Nc1ccc(C(=O)O)cc1"
result = "inactive"

[[record]]
compound = "CCCC(O)C(CC)CO (stereo not drawn)"
result = "inactive"


Which measured outcome value corresponds to O=C1C(c2[nH]c3ccccc3c2O)=Nc2ccccc21 ?
inactive

Can you handle O=C(c1ccccc1)C(O)c1ccccc1 (stereo not drawn) next?
inactive

Can you handle O=C(O)CCCCC1CCSS1 (stereo not drawn) next?
inactive

Can you handle CCCCOC(=O)c1ccc(N)cc1 next?
inactive

Can you handle COc1ccc(O)cc1 next?
inactive

Can you handle O=C1c2cccc(O)c2C(=O)c2c(O)cccc21 next?
inactive

Can you handle CC(=O)Nc1cccc(O)c1 next?
inactive

Can you handle Cc1cc(=O)[nH]c(=S)[nH]1 next?
inactive

---

Tested on: CP329
Assay: qHTS profiling for inhibitors of Plasmodium falciparum proliferation (AID 504749); further: nearly all actives have a fitted effect of over 60% in size
Settings: P. falciparum in erythrocytes, SYBR Green DNA, 72 h; series mostly up to 28.7 µM
Records with an inconclusive call do not appear. Active and inactive are the calls of the source. Calls follow the shape of the dose curve; as a rule, active = well fitted inhibition curve with a large enough effect; inconclusive = small, poorly fitted or top-dose-only effect; inactive = flat fitted curve, though single readings scatter.
Quantity Measured: outcome

Answered examples (5):
[[record]]
compound = "CCCCOC(=O)c1ccc(N)cc1"
quantity_measured = "outcome"
result = "inactive"

[[record]]
compound = "c1ccc2[nH]ccc2c1"
quantity_measured = "outcome"
result = "inactive"

[[record]]
compound = "NCc1ccc(S(N)(=O)=O)cc1"
quantity_measured = "outcome"
result = "inactive"

[[record]]
compound = "CC(C(=O)O)c1ccc2c(c1)Cc1cccnc1O2 (stereo not given)"
quantity_measured = "outcome"
result = "inactive"

[[record]]
compound = "CN/C(=C\\[N+](=O)[O-])NCCSCc1csc(CN(C)C)n1"
quantity_measured = "outcome"
result = "inactive"


Now look at this entry.
Query outcome on CP329 for CC(O)CCCCn1c(=O)c2c(ncn2C)n(C)c1=O (stereo not given)
inactive

---

System: TAB113
Assay: qHTS profiling for inhibitors of Plasmodium falciparum proliferation (AID 504749); further: nearly all actives have a fitted effect of over 60% in size
Details: P. falciparum in erythrocytes, SYBR Green DNA, 72 h; series mostly up to 28.7 µM
Records with an inconclusive call do not appear. The source made the active and inactive calls. Calls follow the shape of the dose curve; as a rule, active = well fitted inhibition curve with a large enough effect; inconclusive = small, poorly fitted or top-dose-only effect; inactive = flat fitted curve, though single readings scatter.
Use one of these outcomes when replying: active, inactive

Worked set:
[[record]]
molecule = "COC(=O)c1ccc(O)cc1"
measurement_target = "TAB113"
answer_label = "inactive"

[[record]]
molecule = "CCCCCCCC(=O)OCC(COC(=O)CCCCCCC)OC(=O)CCCCCCC"
measurement_target = "TAB113"
answer_label = "inactive"

[[record]]
molecule = "CC(C)CCCC(C)CCCC(C)CCCCC(C)CCCC(C)CCCC(C)C (configuration not stated)"
measurement_target = "TAB113"
answer_label = "inactive"

[[record]]
molecule = "N[C@@H](Cc1ccc(O)cc1)C(=O)O"
measurement_target = "TAB113"
answer_label = "inactive"

[[record]]
molecule = "O=C(O)CCCc1ccccc1"
measurement_target = "TAB113"
answer_label = "inactive"


// return assay outcome for CC(=O)N[C@@H](Cc1ccc(O)cc1)C(=O)O
inactive

Can you handle CCCC(O)C(CC)CO (configuration not stated) next?
inactive

Can you handle C[C@@H](N)C(=O)O next?
inactive

Can you handle CCCCCCCCCCOc1cc2c(=O)c(C(=O)OCC)c[nH]c2cc1OCC next?
active

Can you handle Cc1c(C(=O)NCCO)[n+](=O)c2ccccc2n1[O-] next?
inactive

Can you handle CCc1nnc(NS(=O)(=O)c2ccc(N)cc2)s1 next?
inactive

Can you handle CCCCCCCCCCC(CO)CCCCCCCC (configuration not stated) next?
inactive

Can you handle CC[N+](CC)(CC(=O)Nc1c(C)cccc1C)Cc1ccccc1 next?
inactive

Can you handle CCN(CC)CC1CCCCN1CC(=O)N1c2ccccc2C(=O)Nc2cccnc21 (configuration not stated) next?
inactive

Can you handle COc1ccccc1OC(=O)Oc1ccccc1OC next?
inactive

---

Target: Cytochrome P450 2C9 (Homo sapiens) (UniProt P11712)
Sequence (P11712 whole entry, looked up): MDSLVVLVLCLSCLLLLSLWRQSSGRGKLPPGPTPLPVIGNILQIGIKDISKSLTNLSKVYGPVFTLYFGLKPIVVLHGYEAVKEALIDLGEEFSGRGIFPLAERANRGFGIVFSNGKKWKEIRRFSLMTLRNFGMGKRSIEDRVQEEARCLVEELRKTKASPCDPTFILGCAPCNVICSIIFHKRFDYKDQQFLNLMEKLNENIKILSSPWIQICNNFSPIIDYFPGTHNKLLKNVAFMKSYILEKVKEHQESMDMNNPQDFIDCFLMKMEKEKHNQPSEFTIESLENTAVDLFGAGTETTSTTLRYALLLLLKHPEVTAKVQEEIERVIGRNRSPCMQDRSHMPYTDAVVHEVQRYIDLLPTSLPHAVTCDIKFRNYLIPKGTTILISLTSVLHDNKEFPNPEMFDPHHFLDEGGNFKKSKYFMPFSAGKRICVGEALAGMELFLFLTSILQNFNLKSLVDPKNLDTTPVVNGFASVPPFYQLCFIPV
Experiment: Cytochrome P450 family 2 subfamily C member 9 (CYP2C9) small molecule antagonists: luciferase biochemical (cell-free) qHTS assay (AID 1645842); further: on the % scale 0 is the no-effect control and ±100 the full control effect; nearly all actives have a fitted effect of over 55% in size
Settings: P450-Glo CYP2C9 enzyme assay, luciferin luminescence; series mostly up to 57.4 µM
Records with an inconclusive call do not appear. Calls of active or inactive are those of the source. Calls follow the shape of the dose curve; as a rule, active = well fitted inhibition curve with a large enough effect in the repeat runs; inconclusive = weak or mixed curves; inactive = no such curve, though single readings can be large or run the other way.
Quantity Measured: outcome

Answered examples (6):
[[record]]
compound = "CCCCCCCCCCCCCCCCCCO"
measurement_target = "Cytochrome P450 2C9 (Homo sapiens) (UniProt P11712)"
quantity_measured = "outcome"
result = "inactive"

[[record]]
compound = "CC1(C)S[C@@H]2[C@H](N=CN3CCCCCC3)C(=O)N2[C@H]1C(=O)O"
measurement_target = "Cytochrome P450 2C9 (Homo sapiens) (UniProt P11712)"
quantity_measured = "outcome"
result = "inactive"

[[record]]
compound = "O=C(c1ccccc1)C(O)c1ccccc1 (centres undefined)"
measurement_target = "Cytochrome P450 2C9 (Homo sapiens) (UniProt P11712)"
quantity_measured = "outcome"
result = "inactive"

[[record]]
compound = "CC(=O)OCC(COC(C)=O)OC(C)=O"
measurement_target = "Cytochrome P450 2C9 (Homo sapiens) (UniProt P11712)"
quantity_measured = "outcome"
result = "inactive"

[[record]]
compound = "CCN(CC)C(=O)c1cccc(C)c1"
measurement_target = "Cytochrome P450 2C9 (Homo sapiens) (UniProt P11712)"
quantity_measured = "outcome"
result = "inactive"

[[record]]
compound = "O=C(O)CCCCC1CCSS1 (centres undefined)"
measurement_target = "Cytochrome P450 2C9 (Homo sapiens) (UniProt P11712)"
quantity_measured = "outcome"
result = "inactive"


Which measured outcome value corresponds to C=CCOc1ccccc1OCC(O)CNC(C)C (centres undefined) ?
inactive

Can you handle COc1ccc2cc(CCC(C)=O)ccc2c1 next?
inactive

Can you handle CN1CCN(C(=O)C2CCCCC2)CC1 next?
inactive

Can you handle O[C@@H]1CO[C@H]2[C@@H]1OC[C@@H]2O next?
inactive

Can you handle O=C(O)CNC(=O)c1ccccc1I next?
inactive

---

activation values by entry
Experiment: qHTS assay for small molecule activators of the nuclear factor-kappa B (NF-kB) signaling pathway (AID 651749); further: % of control where 0% means no effect
Settings: NF-kB-bla ME-180 cells, beta-lactamase FRET ratio, 16 h; stronger effect = higher value
Results filed as inconclusive are left out. Active and inactive are the calls of the source. The call rests on the fitted dose curve; in most records, active means well fitted activation curve with a large enough effect in the signal ratio; inconclusive means small, poorly fitted or top-dose-only effect, or a change in a side signal; inactive means flat fitted curve, though single readings scatter; the % refers to the signal ratio.

Answered examples (8):
[[record]]
compound = "C=CCNC(N)=S"
result = "-0.527% (inactive)"

[[record]]
compound = "O=C1C(c2[nH]c3ccccc3c2O)=Nc2ccccc21"
result = "-0.0626% (inactive)"

[[record]]
compound = "CCCCOC(=O)c1ccc(N)cc1"
result = "-0.245% (inactive)"

[[record]]
compound = "CC(=O)Nc1cccc(O)c1"
result = "0.693% (inactive)"

[[record]]
compound = "CC1CC(OC(=O)c2ccccc2O)CC(C)(C)C1 (stereo unspecified)"
result = "-1.08% (inactive)"

[[record]]
compound = "CC(=O)Nc1ccc(C(=O)O)cc1"
result = "-1.2% (inactive)"

[[record]]
compound = "CC(C)=CCC/C(C)=C/CO"
result = "-0.602% (inactive)"

[[record]]
compound = "Cc1c(C(=O)NCCO)[n+](=O)c2ccccc2n1[O-]"
result = "-3.75% (inactive)"


Which measured activation value corresponds to CC(=O)Nc1ccccc1 ?
-0.999% (inactive)

Can you handle Cc1ccc(C(C)C)c(O)c1 next?
-1.79% (inactive)

Can you handle Cc1cc(O)cc(C)c1Cl next?
-0.418% (inactive)

---

Target: Cytochrome P450 2C19 (Homo sapiens)
Experiment: qHTS Assay for Inhibitors and Substrates of Cytochrome P450 2C19 (AID 899); further: nearly all actives have a fitted effect of over 60% in size; further: potency means the concentration at half of the fitted maximal effect
Settings: recombinant CYP2C19, luciferin-H EGE luminescence; series mostly up to 25.6 µM
Description: NIH Molecular Libraries Screening Centers Network [MLSCN] NIH Chemical Genomics Center [NCGC] The P450 gene superfamily is involved in the metabolism and clearance of xenobiotics. […] The luciferin is then measured by luminescence after the addition of a luciferase detection reagent. […] Inhibitors and some substrates limit the production of luciferin, and decrease measured luminescence. […]
Inconclusive results are not listed. The source made the active and inactive calls. Calls come from the whole dose curve; as a rule, active = well fitted inhibition curve with a large enough effect; inconclusive = small, poorly fitted or top-dose-only effect; inactive = no such curve, though single readings can be large or run the other way.
Quantity Measured: Potency

[[record]]
molecule = "O=C(Cn1ccnc1[N+](=O)[O-])NCCO"
result = "inactive"

[[record]]
molecule = "O=C1c2ccccc2S(=O)(=O)N1CCCCN1CCN(c2ncccn2)CC1"
result = "631 nM (active)"

[[record]]
molecule = "CCc1cccc(CC)c1NC(=O)CN(CC(=O)O)CC(=O)O"
result = "inactive"

[[record]]
molecule = "C[C@@H]1CCC[C@H](C)N1"
result = "inactive"


Now look at this entry.
Query Potency on Cytochrome P450 2C19 (Homo sapiens) for NS(=O)(=O)c1ccc(C(=O)O)cc1
inactive
